- Tested on: BT-549 breast
- test.method.notes: NCI-60 one-dose screen, 48 h (100 = growth as untreated, 0 = no growth, -100 = all killed)
- condition.info: 10 µM unless noted
This is part of a sample that, as a whole, favours compounds with a hit. Of some 83,000 tested, about 20% had one in any assay.

{"compound": "Cn1c2c(c(=O)[nH]c1=O)NC1=C(C(=O)c3ccccc31)C1(C=C(O)c3ccccc31)N2 (stereo not drawn)", "study.target": "BT-549 breast", "growth, %": 180}
{"compound": "Nc1nc(-c2ccccc2Br)nn1-c1nc2ccccc2s1", "study.target": "BT-549 breast", "growth, %": 100}
{"compound": "COc1ccc(C(O)(CCC(C)C)C(CN2CCOCC2)c2ccc(Cl)cc2)cc1 (stereo not drawn)", "study.target": "BT-549 breast", "growth, %": 62.2}
{"compound": "COC(=O)[C@@H]1CCCN1C(=O)[C@H]1CCCN1C(=O)[C@@H](Cc1c[nH]c2ccccc12)NC(=S)Nc1cc(C(F)(F)F)cc(C(F)(F)F)c1", "study.target": "BT-549 breast", "growth, %": 78.9}
{"compound": "Cn1c(/C=C(\\C#N)c2ccccc2)nc2c(N3CCOCC3)nc(Cl)nc21", "study.target": "BT-549 breast", "growth, %": -77.2}
{"compound": "COc1ccc(C2Nc3nc(OC)n(C)c(=O)c3N=C3c4ccccc4C(=O)C32)cc1 (stereo not drawn)", "study.target": "BT-549 breast", "growth, %": 86.3}
{"compound": "CN1C(=O)N(C)C2Nn3c(s/c(=C4\\C(=O)N(CCc5ccccc5)c5ccccc54)c3=O)=NC21 (stereo not drawn)", "study.target": "BT-549 breast", "growth, %": 72.5}
{"compound": "COc1cc(C(=O)NN=C2c3ccccc3-c3ccccc32)cc(OC)c1OC", "study.target": "BT-549 breast", "growth, %": 43.3}
{"compound": "COc1ccc(CSc2nnc(SCC(=O)Nc3ccc(Cl)cc3)s2)cc1", "study.target": "BT-549 breast", "growth, %": 69}
{"compound": "COc1cc2nc(-c3cccc4cccnc34)nc(NC3CCN(Cc4ccccc4)CC3)c2cc1OC", "study.target": "BT-549 breast", "growth, %": -65}
{"compound": "CN1CCN(Cc2ccc(NC(=O)c3[nH]ncc3Nc3cc(OC4CCCC4)ncn3)cc2)CC1", "study.target": "BT-549 breast", "growth, %": 12.5}
{"compound": "O=C1/C(=C/c2ccc(O)cc2)COc2ccc(O)cc21", "study.target": "BT-549 breast", "growth, %": 106}
{"compound": "O=Cc1c(OCc2cnnn2CC(=O)Nc2ccc(Br)cc2)ccc2ccccc12", "study.target": "BT-549 breast", "growth, %": 80.8}

###

- Test system: MOLT-4 leukemia
- test.method.notes: NCI-60 one-dose screen, 48 h (100 = growth as untreated, 0 = no growth, -100 = all killed)
- condition.info: 10 µM unless noted
Compounds without any hit were thinned out: in the full panel of roughly 83,000, 20% have a hit.
Class y: growth at least 50%. Class n: growth below 50%.

{"compound": "O=C(NCc1ccco1)C1CN(c2ccc(Cl)cc2)N(c2ccc(Cl)cc2)C1=O (stereo not given)", "study.target": "MOLT-4 leukemia", "group.label": "n"}
{"compound": "CN1C(=O)N(C)C2C1NN=c1s/c(=C\\c3ccc([N+](=O)[O-])cc3)c(=O)n12 (stereo not given)", "study.target": "MOLT-4 leukemia", "group.label": "y"}
{"compound": "CN=c1ccc2nc3ccc(N)cc3sc-2c1", "study.target": "MOLT-4 leukemia", "group.label": "n"}
{"compound": "COc1ccc(N(C)c2nc(N)nc3sc4c(c23)CCCC4)cc1", "study.target": "MOLT-4 leukemia", "group.label": "n"}
{"compound": "NCCNc1nc2ccc(F)cc2c2c(=O)c3cc(F)ccc3sc12", "study.target": "MOLT-4 leukemia", "group.label": "n"}
{"compound": "Cn1nc(C(F)(F)F)c(-c2ccc(Cl)c(C(F)(F)F)c2)c1-c1ccc(OCc2ccc(Cl)cc2)cc1O", "study.target": "MOLT-4 leukemia", "group.label": "n"}
{"compound": "O=C(Nc1ccc(-c2nc3cc4ccccc4cc3[nH]2)cc1)c1cccc(Br)c1", "study.target": "MOLT-4 leukemia", "group.label": "y"}
{"compound": "O=c1oc2ccc(F)cc2c(=O)n1-c1ccc(F)cc1F", "study.target": "MOLT-4 leukemia", "group.label": "n"}
{"compound": "COc1ccc(/C=C/C(=O)c2ccc(Nc3nc(NCCO)nc(Nc4ccc(Cl)cc4)n3)cc2)cc1", "study.target": "MOLT-4 leukemia", "group.label": "n"}
{"compound": "COC(=O)C1=Nc2ccc(F)cc2/C1=C/c1sc(=S)[nH]c1O", "study.target": "MOLT-4 leukemia", "group.label": "n"}
{"compound": "Cn1c(=O)n(C)c2cc(CNCCNc3ccnc4cc(Cl)ccc34)ccc21", "study.target": "MOLT-4 leukemia", "group.label": "y"}
{"compound": "Cc1cc(Nc2ccc(OCc3ccccc3)cc2)nc2cc(O)ccc12", "study.target": "MOLT-4 leukemia", "group.label": "n"}
{"compound": "CCN1C(=O)N(CC)C2C1NN=c1s/c(=C3\\C(=O)N(C(C)C)c4ccccc43)c(=O)n12 (stereo not given)", "study.target": "MOLT-4 leukemia", "group.label": "n"}
{"compound": "Nc1ccc(-n2c(=O)oc3ccc(Cl)cc3c2=O)c(Cl)c1", "study.target": "MOLT-4 leukemia", "group.label": "n"}
{"compound": "CCCCN1CCN(c2ccc3nc(-c4ccc5nc(-c6ccc(C(F)(F)F)cc6)[nH]c5c4)[nH]c3c2)CC1", "study.target": "MOLT-4 leukemia", "group.label": "n"}
{"compound": "COc1ccc(Nc2nc(N/N=C/c3ccc(O)cc3)nc(Nc3ccc([N+](=O)[O-])cc3)n2)cc1", "study.target": "MOLT-4 leukemia", "group.label": "y"}
{"compound": "CCOC(=O)C1=C(C)c2ccc(OC)c(OC)c2C1", "study.target": "MOLT-4 leukemia", "group.label": "y"}
{"compound": "O=C(N=Nc1c(O)[nH]c2ccccc12)c1oc2ccccc2c1CN1CCN(c2ccccc2)CC1", "study.target": "MOLT-4 leukemia", "group.label": "n"}
{"compound": "CCC(C)(C)C(=O)O[C@H]1C[C@@H](C)C=C2C=C[C@H](C)[C@H](CC[C@@H]3CC=CC(=O)O3)[C@H]21", "study.target": "MOLT-4 leukemia", "group.label": "n"}
{"compound": "NCCNc1nc2ccccc2c2c(=O)c3cc(F)cc(Cl)c3sc12", "study.target": "MOLT-4 leukemia", "group.label": "n"}
{"compound": "COc1cc(/C=C2\\Oc3cc(OCCCN4CCCC4)ccc3C2=O)cc(OC)c1", "study.target": "MOLT-4 leukemia", "group.label": "n"}
{"compound": "Cc1nc2ccccc2c(/C=C/c2ccc(F)cc2)c1C(N)=O", "study.target": "MOLT-4 leukemia", "group.label": "y"}
{"compound": "COc1cc(C2C(C#N)=C(N)OC3=C2C(=O)c2ccccc2C3=O)cc(OC)c1OC (stereo not given)", "study.target": "MOLT-4 leukemia", "group.label": "y"}
{"compound": "Cc1ccc2c(n1)C(=O)C(Oc1ccc(Br)cc1)=CC2=O", "study.target": "MOLT-4 leukemia", "group.label": "y"}
{"compound": "CCCCc1c(CCC)c(=N)c2ccccc2n1C", "study.target": "MOLT-4 leukemia", "group.label": "y"}
{"compound": "CCN(CC)CCNC(=O)C(Cl)=C1C(Cl)=C(Cl)C(Cl)=C1Cl", "study.target": "MOLT-4 leukemia", "group.label": "n"}
{"compound": "CC/C=C\\C[C@H](O)C/C=C1/C(=O)C=C[C@@H]1C/C=C\\CCCC(=O)OCCS(=O)(=O)c1ccccc1", "study.target": "MOLT-4 leukemia", "group.label": "n"}
{"compound": "COc1cc2nc(NC3CCC3)nc(NC3CCN(C(C)C)CC3)c2cc1OC", "study.target": "MOLT-4 leukemia", "group.label": "n"}
{"compound": "Cn1cc(-c2ccc3ncc(-c4ccc(CC(=O)Nc5cc(C(C)(C)C)no5)cc4)nc3c2)cn1", "study.target": "MOLT-4 leukemia", "group.label": "n"}
{"compound": "Nc1ccccc1-c1ccc(-c2ccc(Cl)cc2)c2c1[nH]c1ccccc12", "study.target": "MOLT-4 leukemia", "group.label": "n"}

###

- Tested on: TK-10 renal
- test.method.notes: NCI-60 one-dose screen, 48 h (100 = growth as untreated, 0 = no growth, -100 = all killed)
- condition.info: 10 µM unless noted
Compounds without any hit were thinned out: in the full panel of roughly 83,000, 20% have a hit.
Values of growth strictly less than 50% map to t, and values of at least 50% map to f.

{"molecule": "O=c1oc2ccc(F)cc2c(=O)n1-c1ccc(Br)cc1F", "group.label": "t"}
{"molecule": "CC[C@]1(O)C[C@@H]2CN(CCc3c([nH]c4ccccc34)[C@@](C(=O)OC)(c3cc4c(cc3OC)N(C)[C@H]3[C@@](O)(C(=O)OC)[C@H](OC(=O)CCCBr)[C@]5(CC)C=CCN6CC[C@]43[C@@H]65)C2)C1", "group.label": "t"}
{"molecule": "CCOC(=O)c1ccc2[nH]c(-c3ccccc3)cc(=O)c2c1", "group.label": "f"}
{"molecule": "CC(C)CCOc1ccc(-c2n[nH]c(C(F)(F)F)c2-c2cncc(C#N)c2)c(O)c1", "group.label": "t"}
{"molecule": "O=C(Nc1ccc(Cl)cc1F)c1cc(I)ccc1O", "group.label": "t"}
{"molecule": "Cc1c(C(=O)OCCO)cc(-c2ccc(Cl)cc2)n1-c1ccc(Cl)cc1Cl", "group.label": "f"}
{"molecule": "Cn1c(=O)n(C)c2cc(CNCCNc3ccnc4cc(Cl)ccc34)ccc21", "group.label": "f"}
{"molecule": "Cc1ccc(NC2=CC(=O)C(=O)c3ccccc32)c(C)c1", "group.label": "f"}
{"molecule": "COC(=O)/C(CCC=C(C)C)=C1\\[C@@H](OC(C)=O)C[C@@]2(C)[C@H]1CC(=O)[C@H]1[C@@]3(C)CC[C@H](NCc4ccccc4)[C@@H](C)[C@@H]3CC[C@@]12C", "group.label": "f"}
{"molecule": "Nc1ncnc(N)c1NC(=O)c1ccc(OCc2ccccc2)cc1", "group.label": "f"}
{"molecule": "CC(=S)NC(=O)C(=O)/C=C1/NC(=O)C(=O)S1", "group.label": "f"}
{"molecule": "COc1ccc(CCN2CCC(CN(C)Cc3cnn(-c4ccccc4)c3)CC2)cc1", "group.label": "t"}
{"molecule": "COc1ccc(/C=C/C(=O)c2c(C)nc3ccccc3c2/C=C/c2ccccc2)cc1O", "group.label": "f"}
{"molecule": "Cc1cccc(NC(=O)c2sc3nc4c(cc3c2N)CCCC4)c1C", "group.label": "f"}
{"molecule": "O=C1NC(=S)NC(=O)C1=Cc1cn(Cc2cn(Cc3cccc4ccccc34)nn2)c2ccccc12", "group.label": "f"}
{"molecule": "COc1c(B(O)O)cccc1-c1nc2ccc3[nH]ncc3c2c2c1C1CCC2C1 (centres undefined)", "group.label": "t"}
{"molecule": "O=C(/C=C/c1ccc(F)cc1)c1ccc(Nc2nc(NCCO)nc(Nc3ccc(Cl)cc3)n2)cc1", "group.label": "f"}
{"molecule": "O=C(N=Nc1c(O)[nH]c2ccccc12)c1oc2ccccc2c1CN1CCN(c2ccccc2)CC1", "group.label": "t"}
{"molecule": "COC(=O)/C(CCC=C(C)C)=C1\\[C@@H](OC(C)=O)C[C@@]2(C)[C@H]1C[C@@H](O)[C@H]1[C@@]3(C)CC[C@H](NCCCNCCCCNCCCN)[C@@H](C)[C@@H]3CC[C@@]12C", "group.label": "f"}
{"molecule": "CCCCN1CCN(c2ccc3nc(-c4ccc5nc(-c6ccc(OCC)cc6)[nH]c5c4)[nH]c3c2)CC1", "group.label": "f"}
{"molecule": "Cc1nc2ccccc2c(/C=C/c2ccccc2)c1C(=O)/C=C/c1ccc(Cl)cc1", "group.label": "t"}
{"molecule": "Cc1cc(OC(=O)c2ccc([N+](=O)[O-])cc2)nc2[nH]c(=O)sc12", "group.label": "f"}
{"molecule": "FC(F)(F)c1cccc(Nc2nc(-c3ccccc3)nc3ncccc23)c1", "group.label": "f"}
